- experiment: acute toxicity (LD50), intraperitoneal administration in mice
- Format: in vivo, mice (male, 20 g)
- assay.setup: mouse, in vivo, ip, intraperitoneal, mice (male, 20 g); read-out: LD50
Non-standard residues stand in square brackets, D forms with d. Residues, ends and D or L forms follow the SMILES beside them. ξ: configuration not given here. *: point of attachment. Dansyl = CN(C)c1cccc2c(S(=O)(=O)*)cccc12; ξPip = O=C(O)C1CCCCN1
Recorded LD50 values for a group of compounds are listed next.

{"columns": ["compound", "LD50"],
 "data": [
  ["COc1cc2ccc(S(=O)(=O)N[C@@H](CCCNC(=N)N)C(=O)N(CC(=O)O)CC3CCCO3)cc2cc1OC (some centres unmarked)", "620 mg/kg"],
  ["CCOCCN(CCC(=O)O)C(=O)[C@H](CCCNC(=N)N)NS(=O)(=O)c1ccc2cc(OC)c(OC)cc2c1", "660 to 1000 mg/kg"],
  ["COc1cc2ccc(S(=O)(=O)N[C@@H](CCCNC(=N)N)C(=O)N(CC(=O)O)CC3CCCCC3)cc2cc1OC", "> 1500 mg/kg"],
  ["COc1ccc2cc(S(=O)(=O)N[C@@H](CCCNC(=N)N)C(=O)N(CC3CCCCC3)[C@@H](C)C(=O)O)cc(OC)c2c1", "> 1500 mg/kg"],
  ["CN(C)c1cccc2c(S(=O)(=O)N[C@@H](CCCNC(=N)N)C(=O)N3CCCCC3C(=O)O)cccc12 (some centres unmarked) (Dansyl-Arg-[ξPip]-OH)", "700 to 1000 mg/kg"],
  ["Cc1ccc2ccc(S(=O)(=O)N[C@@H](CCCNC(=N)N)C(=O)N(CC(=O)O)CC3CCCO3)cc2c1 (some centres unmarked)", "600 mg/kg"],
  ["CC1CCN(C(=O)[C@H](CCCNC(=N)N)NS(=O)(=O)c2cccc3ccccc23)C(C(=O)O)C1 (some centres unmarked)", "700 to 1000 mg/kg"],
  ["COCCN(CC(=O)O)C(=O)[C@H](CCCNC(=N)N)NS(=O)(=O)c1cc(OC)c2cc(OC)ccc2c1", "660 to 1000 mg/kg"]
]}
